tested on: wheat (Triticum aestivum L.), TRZAX; assay: Test Example 2 post-emergence (foliage treatment) herbicidal activity, TRZAX; format: in vivo; settings: 63 g a.i./ha
measure: growth controlling degree, TRZAX (%)
Entry rule: numbers only, all in %.

Worked cases, growth controlling degree, TRZAX given:
COc1c(Cl)cc(F)c(-c2nn(C)c(OC(F)F)c2Cl)c1N(C=O)CC(C)=O: 40
COc1c(Cl)cc(F)c(-c2nn(C)c(OC(F)F)c2Cl)c1N(C(=O)OCCCl)C(=O)OCCCl: 10
COc1c(Cl)cc(F)c(-c2nn(C)c(OC(F)F)c2Cl)c1NC(=O)OCC(C)C: 30
COc1c(Cl)cc(F)c(-c2nn(C)c(OC(F)F)c2Cl)c1NC(=O)OCCN(C)C: 20
COc1c(Cl)cc(F)c(-c2nn(C)c(OC(F)F)c2Cl)c1NC(=O)COCc1ccccc1: 40
C#CCOC(=O)Nc1c(OC)c(Cl)cc(F)c1-c1nn(C)c(OC(F)F)c1Cl: 50

Given item "COc1c(Cl)cc(F)c(-c2nn(C)c(OC(F)F)c2Cl)c1NC(=O)C(C)=Cc1ccccc1" , the value recorded as its growth controlling degree, TRZAX is 20

Entry under test: "COc1c(Cl)cc(F)c(-c2nn(C)c(OC(F)F)c2Cl)c1NC(=O)C=Cc1ccc(C)cc1" . Its growth controlling degree, TRZAX was 10
